studySystem: HIV-1 integrase wild-type (IN1-288) (HIV-1, UniProt P12497 P12497:1148-1435)
assayProtocol: inhibition; first activity column (headed strand transfer); other column 0.070
measurementConditions: G4
pIC50: −log10 of the molar value.

# binder, pIC50
rows = [
    ("GTGGTGGGTGGGTGGGT (ssDNA, PS at first and last linkages, 5-bromo-dU at position 13 [n positions 13 = modified dU]) [T30570]", 7.05),
]

src = patent US6323185
